- procedure.details: EMT-state selective cytotoxicity in co-culture – imaging, PC-3E GFP, TEM4-18 mCherry, primary screen (AID 1345086);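 also: cells exposed to compound for 72 h before imaging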
- recorded.conditions: PC-3E GFP / TEM4-18 mCherry co-culture, imaging cell counts; measured here: mesenchymal TEM4-18 mCherry cell survival; at 1 µM
Listed below: normalised cell number values for each entry.
Response field accepts a number only; no unit should be typed.

Example results:
compound	normalised cell number
COc1cc(OC)c(C(=O)CCCN2CCCC2)c(OC)c1	1
CCN(CC)CCOC(=O)C(c1ccccc1)c1ccccc1	1.22
NC[C@H]1O[C@H](O[C@H]2[C@H](O)[C@@H](O[C@H]3O[C@H](CO)[C@@H](O)[C@H](N)[C@H]3O)[C@H](N)C[C@@H]2N)[C@H](N)[C@@H](O)[C@@H]1O	1.31
CCN(CC)CCOCCOC(=O)C1(c2ccccc2)CCCC1	1.28
C[N+](C)(C)CCCCCC[N+](C)(C)C	1

Quick one: normalised cell number for Nc1ccc(S(=O)(=O)Nc2nccs2)cc1 ?
1.24

Also need Oc1c(I)cc(I)c2cccnc12 , thanks.
1.32

====

- procedure.details: reduced SW480 viability measured with CellTiter-Glo, NPC library, primary (AID 1117343)
- recorded.conditions: CellTiter-Glo luminescence; at 20 µM (top of the series)
Activity calls are given as the source filed them.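 Rule for the calls: active = compounds that lower viability of the colon cancer cells in the luminescence readout, with no numeric limit stated; inactive = the rest.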
Hello, when you answer, please use one of the following outcomes: Yes for active, No for inactive

Illustrative cases are given below, each with its answer.
>>> print(df.to_string())
                                   compound  category
0  Cn1c(=O)c2c(ncn2CC(O)CO)n(C)c1=O (stereo not given)        No
1               NC(=O)OCC(COC(N)=O)c1ccccc1        No
2  Cc1cc2nc3c(=O)[nH]c(=O)nc-3n(C[C@H](O)[C@H](O)[C@H](O)CO)c2cc1C        No
3  CN(C)CCc1c[nH]c2ccc(CS(=O)(=O)N3CCCC3)cc12        No
4  C[n+]1c2cc(N)ccc2cc2ccc(N)cc21 (tested in a mixture with another compound)       Yes

Which outcome was assigned to Cc1cccc(C(=O)O)c1O in this test?
No

Also need C[N+]1(C)[C@@H]2CC(OC(=O)[C@H](CO)c3ccccc3)C[C@H]1[C@@H]1O[C@@H]12 (stereo not given in full) , thanks.
No

Also need CCc1c2c(nc3ccc(OC(=O)N4CCC(N5CCCCC5)CC4)cc13)-c1cc3c(c(=O)n1C2)COC(=O)[C@]3(O)CC , thanks.
No

Also need Cc1cc(C(C)(C)C)cc(C)c1CC1=NCCN1 , thanks.
No

Also need Cc1c(NC(C)C)c(=O)n(-c2ccccc2)n1C , thanks.
No

====

Listed below: z-score values for each entry.
- procedure.details: MELAS cybrid and Rieske KO viability enhancers – cell-based, MELAS cybrids, Rieske KO mouse fibroblasts, CellTiter-Glo, primary screen (AID 1508586);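 also: z relative to plate mean and SD of compound and empty wells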
- recorded.conditions: MELAS cybrid survival, low glucose, CellTiter-Glo 48 h; stronger effect = higher value
Activity calls are given as the source filed them.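 How the source made its calls: active means mean z-score across replicates of 1.96 or higher in either the MELAS or the Rieske mutant cell line; inactive means the rest.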

Example results:
                                   compound  measured_attribute         assay_value
0  Cc1ccccc1OCC(O)CO (configuration not stated)             z-score   -0.331 (inactive)
1           CCCCN(CCCC)CCCOC(=O)c1ccc(N)cc1             z-score    0.278 (inactive)
2   Cc1nc(-c2ccc(OCC(C)C)c(C#N)c2)sc1C(=O)O             z-score    0.976 (inactive)
3  Cc1onc(-c2ccccc2Cl)c1C(=O)N[C@@H]1C(=O)N2[C@@H]1SC(C)(C)[C@@H]2C(=O)O             z-score     1.06 (inactive)
4  CCC(=O)O[C@]1(C(=O)SCF)[C@H](C)C[C@H]2[C@@H]3C[C@H](F)C4=CC(=O)C=C[C@]4(C)[C@@]3(F)[C@@H](O)C[C@@]21C             z-score    0.444 (inactive)
5       CCn1cc(C(=O)O)c(=O)c2cc3c(cc21)OCO3             z-score    0.663 (inactive)
6                         CC1(C)OC(=O)NC1=O             z-score  -0.0486 (inactive)
7                     CCCCOC(=O)c1ccc(N)cc1             z-score    0.902 (inactive)

Quick one: z-score for OC(CCN1CCCCC1)(c1ccccc1)c1ccccc1 ?
-1.04 (inactive)

Also need CCC(Cc1c(I)cc(I)c(N)c1I)C(=O)O (configuration not stated) , thanks.
0.0916 (inactive)

Also need O=C(O)CCNC(=O)c1ccc(N=Nc2ccc(O)c(C(=O)O)c2)cc1 , thanks.
-1.26 (inactive)

Also need Cn1c(=O)c2c(ncn2CCO)n(C)c1=O , thanks.
-0.0698 (inactive)

Also need C[C@H](N)[C@H](O)c1cccc(O)c1 , thanks.
0.835 (inactive)

Also need CCN(CC)CCNc1ccc(CO)c2sc3ccccc3c(=O)c12 , thanks.
4.63 (active)

Also need CC(=O)O[C@]1(C(C)=O)CC[C@H]2[C@@H]3C=C(Cl)C4=CC(=O)CC[C@]4(C)[C@H]3CC[C@@]21C , thanks.
-0.83 (inactive)

Also need C[N+](C)(C)CCCCCC[N+](C)(C)C , thanks.
0.935 (inactive)

Also need Nc1nc(F)nc2c1ncn2[C@@H]1O[C@H](CO)[C@@H](O)[C@@H]1O , thanks.
4.36 (active)

Also need Cc1nnc(SCC2=C(C(=O)O)N3C(=O)[C@@H](NC(=O)Cn4cnnn4)[C@H]3SC2)s1 , thanks.
0.651 (inactive)

Also need CO[C@@]12[C@H](COC(N)=O)C3=C(C(=O)C(C)=C(N)C3=O)N1C[C@@H]1N[C@@H]12 , thanks.
-0.241 (inactive)

Also need COc1cc2c3cc1Oc1cc(ccc1O)C[C@@H]1c4c(cc(OC)c(O)c4Oc4ccc(cc4)C[C@@H]3N(C)CC2)CC[N+]1(C)C , thanks.
-0.392 (inactive)

Also need Nc1ccc(S(=O)(=O)NC(=O)c2ccccc2)cc1 , thanks.
-0.2 (inactive)

Also need CCOc1cc(N)c(Cl)cc1C(=O)NCC1CN(Cc2ccc(F)cc2)CCO1 (configuration not stated) , thanks.
-0.303 (inactive)

====

- procedure.details: modulation of C. elegans fzo-1 (AID 1259413);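 also: fzo-1 mutant C. elegans worms in liquid wells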
- recorded.conditions: C. elegans fzo-1 modulator screen, mean read-out; stronger effect = higher value
Calls of active or inactive are those of the source. No rule for the calls is given here.
measured.attribute: mean signal

Quick one: mean signal for CN1CCN(c2c(F)cc3c(=O)c(C(=O)O)cn4c3c2SCC4)CC1 ?
251 (inactive)

Also need CC(=O)OCC(=O)NCCCOc1cccc(CN2CCCCC2)c1 , thanks.
244 (inactive)

====

- procedure.details: inhibition of endothelial tube formation, primary screen, imaging, VEGF stimulated, CD31 staining, tube area, NPC library (AID 1117340)
- recorded.conditions: VEGF-stimulated ADSC/ECFC co-culture, at 10 µM, stronger effect = higher value
Listed below: tube area decrease values for each entry.
# unit: % | format: bare number

                                   molecule  measured_attribute  assay_value
0  COCCc1ccc(OCC(O)CNC(C)C)cc1 (stereo not given)  tube area decrease         -8.1
1                   CCN(CC)C(=O)N1CCN(C)CC1  tube area decrease         -3.8

Quick one: tube area decrease for Nc1ccc(O)c(C(=O)O)c1 ?
-5.5

Also need Oc1ccc(OCc2ccccc2)cc1 , thanks.
0.5

====

Listed below: inhibition values for each entry.
- system: 6-phosphogluconate dehydrogenase, decarboxylating (Homo sapiens) (UniProt P52209)
- Sequence (P52209 whole entry, looked up): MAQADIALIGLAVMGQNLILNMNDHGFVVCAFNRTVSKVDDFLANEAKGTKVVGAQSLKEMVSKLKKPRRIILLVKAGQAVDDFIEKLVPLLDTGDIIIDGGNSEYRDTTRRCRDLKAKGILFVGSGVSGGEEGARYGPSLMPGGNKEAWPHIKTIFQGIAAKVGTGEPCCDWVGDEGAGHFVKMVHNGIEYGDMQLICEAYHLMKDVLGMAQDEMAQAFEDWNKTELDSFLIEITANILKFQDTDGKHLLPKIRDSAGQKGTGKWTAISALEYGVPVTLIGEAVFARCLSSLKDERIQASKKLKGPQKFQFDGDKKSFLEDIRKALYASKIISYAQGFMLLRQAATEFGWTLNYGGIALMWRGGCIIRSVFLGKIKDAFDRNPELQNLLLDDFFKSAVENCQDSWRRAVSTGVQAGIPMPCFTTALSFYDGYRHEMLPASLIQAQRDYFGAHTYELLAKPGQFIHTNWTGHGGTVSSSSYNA
- procedure.details: inhibition of human phosphogluconate dehydrogenase – biochemical, recombinant enzyme, NADPH absorbance, primary screen (AID 1159550)
- recorded.conditions: recombinant 6PGD, NADPH absorbance 341 nm; at 10 µM; stronger effect = higher value
# unit: % | format: bare number

>>> df
                                   compound  unit_name  assay_value
0                 CNC[C@H](O)c1ccc(O)c(O)c1          %        -1.63
1  CC(=O)N(O)CCCCCNC(=O)CCC(=O)N(O)CCCCCNC(=O)CCC(=O)N(O)CCCCCN          %         -4.7
2  O=C(O)c1ccccc1C(=O)Nc1ccc(S(=O)(=O)Nc2nccs2)cc1          %         5.34

Quick one: inhibition for CN1C(C)(C)CCCC1(C)C ?
2.01

Also need Cc1onc(-c2ccccc2)c1C(=O)N[C@@H]1C(=O)N2[C@@H]1SC(C)(C)[C@@H]2C(=O)O , thanks.
8.76

Also need Cc1ncc([N+](=O)[O-])n1CCO , thanks.
-20.7
